All figures here come from BindingDB's records for doi:10.1021/jm050292k.

Assignment: determine reported EC50 for the given molecules.
# method: Caspase-3 activation activity tested in T47D breast cells done for 24 or 48 hr at 37 degree C
One number for each entry, in µM.

> print(dat)
                               smiles.code  value.reported
1         Clc1ccc(-c2noc(-c3occc3Cl)n2)cc1            1.74
2         COc1ccc(-c2noc(-c3sccc3Cl)n2)cc1            4.17
3   FC(F)(F)c1ccc(-c2noc(-c3sccc3Cl)n2)nc1            1.44
4  FC(F)(F)Oc1ccc(-c2noc(-c3sccc3Cl)n2)cc1            0.89

API: the following record is the query input.
Summary for this molecule, `Clc1ccc(-c2noc(-c3ccco3)n2)cc1` : EC50 is 17.4

* * *

# method: Caspase-3 activation activity tested in DLD1 colon cells done for 24 or 48 hr at 37 degree C
Assignment: determine reported EC50 for the given molecules.

> print(dat)
                              smiles.code  quantity  value.reported
1  FC(F)(F)c1ccc(-c2noc(-c3occc3Cl)n2)cc1      EC50          480 nM
2        Clc1ccc(-c2noc(-c3sccc3Cl)n2)cc1      EC50          790 nM

# batch: return EC50 for each of the 6 molecules below
1. Cc1ccc(-c2noc(-c3sccc3Cl)n2)cc1
2. FC(F)(F)c1ccc(-c2noc(-c3occc3Br)n2)cc1
3. FC(F)(F)c1ccc(-c2noc(-c3sccc3Cl)n2)nc1
4. Clc1ccc(-c2noc(-c3occc3Br)n2)cc1
5. Clc1ccc(-c2noc(-c3sccc3Cl)n2)cn1
6. FC(F)(F)c1ccc(-c2noc(-c3sccc3Cl)n2)cc1

1: 1420 nM; 2: 1070 nM; 3: 410 nM; 4: 830 nM; 5: 290 nM; 6: 440 nM

# batch: return EC50 for each of the 3 molecules below
1. Clc1ccc(-c2noc(-c3cccs3)n2)cc1
2. FC(F)(F)c1ccc(-c2noc(-c3occc3Br)n2)nc1
3. Clc1ccc(-c2noc(-c3sccc3Cl)n2)nc1

1. > 10000 nM
2. 700 nM
3. 390 nM

# batch: return EC50 for each of the 4 molecules below
1. FC(F)(F)c1cc(-c2noc(-c3sccc3Cl)n2)ccc1Cl
2. Clc1ccsc1-c1nc(-c2ccccc2)no1
3. Clc1ccc(-c2noc(-c3sccc3Br)n2)cc1
4. CN(C)c1ccc(-c2noc(-c3sccc3Cl)n2)cc1

1: 560 nM; 2: 760 nM; 3: 1320 nM; 4: > 10000 nM

# batch: return EC50 for each of the 7 molecules below
1. Clc1ccc(-c2noc(-c3occc3Cl)n2)nc1
2. Cc1csc(-c2nc(-c3ccc(Cl)cc3)no2)c1Cl
3. Clc1ccc(-c2noc(-c3sccc3Cl)n2)cc1Cl
4. Clc1ccc(-c2noc(-c3occc3Br)n2)nc1
5. Clc1ccc(-c2noc(-c3occc3Cl)n2)cc1
6. Cc1cc(Cl)ccc1-c1noc(-c2sccc2Cl)n1
7. Clc1ccc(-c2noc(-c3ccco3)n2)cc1

["580 nM", "> 10000 nM", "370 nM", "840 nM", "1490 nM", "380 nM", "> 10000 nM"]

# batch: return EC50 for each of the 3 molecules below
1. FC(F)(F)Oc1ccc(-c2noc(-c3sccc3Cl)n2)cc1
2. Cc1ccc(-c2noc(-c3cccs3)n2)cc1
3. COc1ccc(-c2noc(-c3sccc3Cl)n2)cc1

430 nM
> 10000 nM
1450 nM

# batch: return EC50 for each of the 3 molecules below
1. FC(F)(F)c1ccc(-c2noc(-c3sccc3Cl)n2)cn1
2. FC(F)(F)c1cccc(-c2noc(-c3sccc3Cl)n2)c1
3. CCOc1ccsc1-c1nc(-c2ccc(Cl)cc2)no1

240 nM
280 nM
> 10000 nM

* * *

# method: Caspase-3 activation activity tested in LnCap cancer cells done for 24 or 48 hr at 37 degree C
pEC50: −log10 of the molar value.
quantity: pEC50

Summary for this molecule, `FC(F)(F)c1ccc(-c2noc(-c3sccc3Cl)n2)cc1` : pEC50 is < 5.00

* * *

# method: Caspase activation activity of compound in cell line H-1299 nonsmall-cell lung cancer cells
quantity: EC50

Summary for this compound, `Clc1ccc(-c2noc(-c3occc3Cl)n2)nc1` : EC50 is > 10 µM

* * *

# method: Caspase-3 activation activity tested in H1299 lung cancer cells done for 24 or 48 hr at 37 degree C
quantity: EC50

> print(dat)
                           smiles.code  value.reported
1  Cc1csc(-c2nc(-c3ccc(Cl)cc3)no2)c1Cl         > 40 µM

# batch: return EC50 for each of the 3 molecules below
1. Clc1ccc(-c2noc(-c3sccc3Cl)n2)cn1
2. Clc1ccc(-c2noc(-c3sccc3Cl)n2)cc1Cl
3. Clc1ccc(-c2noc(-c3sccc3Cl)n2)cc1

1. > 10 µM
2. > 10 µM
3. > 40 µM

* * *

# method: Caspase-3 activation activity tested in T47D breast cells done for 24 or 48 hr at 37 degree C
quantity: EC50

See these solved cases before continuing.
> print(dat)
                               smiles.code  quantity  value.reported
1        CCOc1ccsc1-c1nc(-c2ccc(Cl)cc2)no1      EC50         > 40 µM
2  FC(F)(F)c1ccc(-c2noc(-c3ccccc3Cl)n2)cc1      EC50         > 40 µM

# batch: return EC50 for each of the 2 molecules below
1. Clc1ccc(-c2noc(-c3ccccc3Cl)n2)cc1
2. O=[N+]([O-])c1ccc(-c2noc(-c3occc3Cl)n2)cc1

> 40 µM
1.97 µM

* * *

Assignment: determine reported EC50 for the given compounds.
# method: Caspase-3 activation activity tested in T47D breast cells done for 24 or 48 hr at 37 degree C

See these solved cases before continuing.
> print(dat)
                          smiles.code  value.reported
1  Clc1ccc(-c2noc(-c3sccc3Cl)n2)cc1Cl         1.41 µM
2    Clc1ccc(-c2noc(-c3sccc3Cl)n2)cc1         1.77 µM
3       Cc1ccc(-c2noc(-c3cccs3)n2)cc1         > 40 µM

# batch: return EC50 for each of the 3 compounds below
1. CN(C)c1ccc(-c2noc(-c3sccc3Cl)n2)cc1
2. Clc1ccc(-c2noc(-c3sccc3Cl)n2)nc1
3. Cc1csc(-c2nc(-c3ccc(Cl)cc3)no2)c1Cl

1. > 40 µM
2. 1.59 µM
3. > 40 µM

* * *

# method: Caspase-3 activation activity tested in H1299 lung cancer cells done for 24 or 48 hr at 37 degree C
pEC50: −log10 of the molar value.
quantity: pEC50

# batch: return pEC50 for each of the 6 compounds below
1. FC(F)(F)c1ccc(-c2noc(-c3occc3Cl)n2)cc1
2. FC(F)(F)c1ccc(-c2noc(-c3ccccc3Cl)n2)cc1
3. Clc1ccc(-c2noc(-c3sccc3Cl)n2)nc1
4. FC(F)(F)c1ccc(-c2noc(-c3occc3Br)n2)cc1
5. FC(F)(F)Oc1ccc(-c2noc(-c3sccc3Cl)n2)cc1
6. Cc1cc(Cl)ccc1-c1noc(-c2sccc2Cl)n1

1: < 5.00; 2: < 4.40; 3: < 4.40; 4: < 5.00; 5: < 5.00; 6: < 4.40
